Assay: MultiTox-Fluor Cytotoxicity Assay - LYMP1-001 - Dead Cells (AID 946);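 also: cells exposed to compound for 16 h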
Settings: LYMP1-001 lymphoblastoid cells, dead-cell protease fluorescence; series mostly up to 92.2 µM
Inconclusive results are not listed. The source made the active and inactive calls. Calls follow the shape of the dose curve; as a rule, active = well fitted cell-killing curve with a large enough effect; inconclusive = small, poorly fitted or top-dose-only effect, or effect the other way; inactive = flat fitted curve, though single readings scatter.
Select the matching outcome among 1.0 = active, 0.0 = inactive

O=C1OC2(c3cc(Br)c(O)c(Br)c3Oc3c2cc(Br)c(O)c3Br)c2c(Cl)c(Cl)c(Cl)c(Cl)c21 :: 0.0
Cc1cc(O)c(C(C)(C)C)cc1Sc1cc(C(C)(C)C)c(O)cc1C :: 1.0
CNc1ccc(O)cc1 :: 1.0

Dear colleague, could you share the recorded outcome for Nc1ccc2cc3ccccc3cc2c1 when you have a moment?
0.0

Dear colleague, could you share the recorded outcome for ClC1=C(Cl)C(Cl)(Cl)C(Cl)=C1Cl when you have a moment?
0.0

Dear colleague, could you share the recorded outcome for C=CC(=O)OCCOCCOC(=O)C=C when you have a moment?
1.0

###

Target: Glucocorticoid receptor (Homo sapiens) (UniProt P04150)
Sequence (P04150 whole entry, looked up): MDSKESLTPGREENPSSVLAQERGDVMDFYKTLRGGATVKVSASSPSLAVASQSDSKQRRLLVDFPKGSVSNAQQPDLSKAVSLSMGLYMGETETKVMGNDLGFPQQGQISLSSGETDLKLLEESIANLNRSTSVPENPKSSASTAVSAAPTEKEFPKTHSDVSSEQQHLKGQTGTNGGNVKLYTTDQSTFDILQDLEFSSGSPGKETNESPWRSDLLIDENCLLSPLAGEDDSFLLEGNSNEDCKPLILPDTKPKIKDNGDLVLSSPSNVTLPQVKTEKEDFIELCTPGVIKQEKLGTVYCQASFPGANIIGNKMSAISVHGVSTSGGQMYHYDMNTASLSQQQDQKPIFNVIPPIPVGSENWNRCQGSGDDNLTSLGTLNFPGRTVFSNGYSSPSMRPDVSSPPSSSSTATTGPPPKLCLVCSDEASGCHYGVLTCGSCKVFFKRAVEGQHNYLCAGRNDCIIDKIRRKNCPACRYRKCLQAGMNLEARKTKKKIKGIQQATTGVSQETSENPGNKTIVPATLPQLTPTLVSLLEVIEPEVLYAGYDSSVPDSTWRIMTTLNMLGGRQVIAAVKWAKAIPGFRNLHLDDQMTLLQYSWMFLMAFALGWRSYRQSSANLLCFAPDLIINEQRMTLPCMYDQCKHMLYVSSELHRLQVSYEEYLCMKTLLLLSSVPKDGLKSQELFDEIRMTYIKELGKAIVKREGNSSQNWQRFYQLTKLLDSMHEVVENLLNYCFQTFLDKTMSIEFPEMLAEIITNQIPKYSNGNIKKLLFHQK
Assay: GR-GFP Redistribution (AID 450)
Details: U2OS GR-GFP nuclear translocation, laser cytometry, 2 h; series mostly up to 20.6 µM
Activity calls are given as the source filed them.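 The calls were made as follows: active = compounds whose dose series gives a full or clear partial fitted curve of increased nuclear translocation; inconclusive = weak partial curve or effect only at the top dose; inactive = no dose-dependent translocation response.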
Select the matching outcome among 1 (yes) = active, 0 (no) = inactive

Example results:
CCCCCOc1ccc(C(=O)NCC(=O)NCC(=O)OCC)cc1 :: 0 (no)
COc1cc(C2C3C(=O)N(c4ccccc4)C(=O)C3ON2c2ccccc2)ccc1O (configuration not stated) :: 0 (no)
Nc1nc(NC(=O)c2cccs2)nn1-c1ccccc1 :: 0 (no)
Cc1cc(=O)[nH]c(SCC(=O)c2ccccc2)c1C#N :: 0 (no)
CCOc1nc(Oc2cccc(C(=O)O)c2)nc(Oc2cccc(C(=O)O)c2)n1 :: 0 (no)

Dear colleague, could you share the recorded outcome for CC(C)Cc1[nH]c(=O)c(C#N)c2c1COC(C)(C)C2 when you have a moment?
0 (no)

Dear colleague, could you share the recorded outcome for Cc1nn(C)cc1CNC(=O)c1ccc(Br)o1 when you have a moment?
0 (no)

Dear colleague, could you share the recorded outcome for COC(=O)c1ccc(C2/C(=C(\O)c3ccc(OC)c(C)c3)C(=O)C(=O)N2c2cc(C)on2)cc1 (configuration not stated) when you have a moment?
0 (no)

Dear colleague, could you share the recorded outcome for COc1ccc(CSC2=NCCN2)cc1Cl when you have a moment?
0 (no)

Dear colleague, could you share the recorded outcome for O=C(O)[C@H]1C[C@@H](CP(=O)(O)O)CCN1 when you have a moment?
0 (no)

Dear colleague, could you share the recorded outcome for CCSC(SCC)[C@H](O)[C@@H](O)[C@H](O)[C@H](O)CO when you have a moment?
0 (no)

Dear colleague, could you share the recorded outcome for CCN(CC)CCN1C(=O)C(=O)/C(=C(/O)c2c(C)[nH]c(C(=O)OC)c2C)C1c1ccccc1 (configuration not stated) when you have a moment?
0 (no)

Dear colleague, could you share the recorded outcome for CC(C)C1Cc2c(C#N)c(N)n(C)c(=S)c2CO1 (configuration not stated) when you have a moment?
0 (no)

Dear colleague, could you share the recorded outcome for Cn1c(=O)c2c(nc(Br)n2CCSc2nc3ccccc3o2)n(C)c1=O when you have a moment?
0 (no)

Dear colleague, could you share the recorded outcome for C=CCNc1nnc(SC2CC(=O)N(c3ccc(OC)cc3)C2=O)s1 (configuration not stated) when you have a moment?
0 (no)

Dear colleague, could you share the recorded outcome for Cn1c(SCC(=O)N2CCOCC2)nnc1-c1ccc(Cl)cc1Cl when you have a moment?
0 (no)

Dear colleague, could you share the recorded outcome for CC(C)OC(=O)c1sc2nc3c(cc2c1N)C(=O)CCC3 when you have a moment?
0 (no)

Dear colleague, could you share the recorded outcome for O=C(NCc1ccccc1)c1ccc(=O)[nH]n1 when you have a moment?
0 (no)

Dear colleague, could you share the recorded outcome for C=CCN1CCc2c(cc(O)c(O)c2Br)[C@H](c2ccccc2)C1 when you have a moment?
0 (no)

Dear colleague, could you share the recorded outcome for O=S(=O)(c1ccccc1)N(CC(O)CN1CCCCC1)c1ccccc1 (configuration not stated) when you have a moment?
0 (no)

Dear colleague, could you share the recorded outcome for O=C(NC1CCS(=O)(=O)C1)N1CCCCC1 (configuration not stated) when you have a moment?
0 (no)

Dear colleague, could you share the recorded outcome for Cc1cc(Cl)ccc1OCC(=O)OC(C)C(=O)N(C)C (configuration not stated) when you have a moment?
0 (no)

Dear colleague, could you share the recorded outcome for CCOc1ccc(CSC(CC(=O)O)C(=O)O)cc1 (configuration not stated) when you have a moment?
0 (no)

Dear colleague, could you share the recorded outcome for N#C/C(C(=O)NCc1ccco1)=C1/SC(Cc2ccc(F)cc2)C(=O)N1c1ccccc1 (configuration not stated) when you have a moment?
0 (no)

###

Task for the reader: assign each of the following molecules its reported max response.
Biological target: Peroxisome proliferator-activated receptor alpha (Homo sapiens) (UniProt Q07869)
Sequence (Q07869 whole entry, looked up): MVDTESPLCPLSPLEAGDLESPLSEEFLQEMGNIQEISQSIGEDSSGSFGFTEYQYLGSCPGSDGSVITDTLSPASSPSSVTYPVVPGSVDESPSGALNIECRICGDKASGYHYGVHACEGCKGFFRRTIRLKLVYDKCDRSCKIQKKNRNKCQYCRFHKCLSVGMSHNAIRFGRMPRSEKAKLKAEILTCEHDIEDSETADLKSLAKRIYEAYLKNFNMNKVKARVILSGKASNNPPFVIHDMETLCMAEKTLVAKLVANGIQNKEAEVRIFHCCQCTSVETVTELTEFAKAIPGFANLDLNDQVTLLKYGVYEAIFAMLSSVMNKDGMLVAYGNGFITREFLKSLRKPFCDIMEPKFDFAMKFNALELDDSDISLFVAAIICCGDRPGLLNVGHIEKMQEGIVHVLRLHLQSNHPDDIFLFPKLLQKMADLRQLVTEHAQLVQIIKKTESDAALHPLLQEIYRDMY
Test: qHTS assay for small molecule agonists of the peroxisome proliferator-activated receptor alpha (PPARalpha) signaling pathway (AID 651778); also: % of control where 0% means no effect
Settings: PathHunter PPARalpha complementation, chemiluminescence, 6 h; active compounds read high
One number for each entry, in %.

For orientation, consider the following solved cases.
O=Cc1ccc(Cl)c(Cl)c1 :: 1.8
Cc1cc(Nc2ccc(O)cc2)ccc1N :: -7.64
CC1CCC(C(C)C)C(O)C1 (stereo not given) :: -0.619
C/C=C1\C(=O)C[C@H]2[C@@H]3CCC4=CC(=O)CC[C@]4(C)[C@H]3CC[C@]12C :: -3.35

Consider the additional molecule presented here.
Sample Oc1ccc2cc(SSc3ccc4cc(O)ccc4c3)ccc2c1 ; max response observed: -7.41

###

System: CP247
Assay: qHTS profiling for inhibitors of Plasmodium falciparum proliferation (AID 504749); also: nearly all actives have a fitted effect of over 60% in size
Conditions: P. falciparum in erythrocytes, SYBR Green DNA, 72 h; series mostly up to 28.7 µM
Records with an inconclusive call do not appear. Calls of active or inactive are those of the source. The call rests on the fitted dose curve; in most records, active means well fitted inhibition curve with a large enough effect; inconclusive means small, poorly fitted or top-dose-only effect; inactive means flat fitted curve, though single readings scatter.
Select the matching outcome among active, inactive

O=C(O)c1ccc(N[C@@H]2OC[C@@H](O)[C@@H](O)[C@@H]2O)cc1 :: inactive
Nc1nc2[nH]cc(CCc3ccc(C(=O)NC(CCC(=O)O)C(=O)O)cc3)c2c(=O)[nH]1 (stereo not drawn) :: active
Cc1cnc(C(=O)O)cn1 :: inactive
OCC1OC(O)C(O)C(O)C1O (stereo not drawn) :: inactive
C[C@]12CC[C@@H]3c4ccc(O)cc4CC[C@H]3[C@@H]1C[C@H](O)C2O (stereo partly drawn) :: inactive
CCC(=O)O[C@]1(C(=O)CCl)[C@@H](C)CC2C3C[C@H](F)C4=CC(=O)C=CC4(C)[C@@]3(F)C(O)CC21C (stereo partly drawn) :: active

Dear colleague, could you share the recorded outcome for Cc1cnc(NC(=O)C2C(=O)c3ccccc3S(=O)(=O)N2C)s1 (stereo not drawn) when you have a moment?
inactive

Dear colleague, could you share the recorded outcome for CN1[C@@H]2CC[C@@H]1CC(OC(=O)[C@H](CO)c1ccccc1)C2 (stereo partly drawn) when you have a moment?
inactive

###

Assay: AP1 Signaling Pathway (AID 357);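 also: ME-180 reporter cells stimulated with EGF at its EC50 level; % is scaled to controls: 0 for no effect and ±100 for the full control effect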
Conditions: ME-180 (cervical carcinoma) AP-1-bla reporter, EGF-induced, beta-lactamase ratio, 5 h; at 17.2 µM (top of the series) unless noted
Records with an inconclusive call do not appear.
Measured endpoint: activity change, negative = inhibition (%)
Give bare numbers, in %.

CCN1CC=C2C(C#N)=C(N)C(C#N)(C#N)[C@H](c3cccc(OC)c3OC)[C@H]2C1 :: 9.63
Cn1c(OCc2ccco2)nc2c1c(=O)n(Cc1ccc(Cl)c(Cl)c1)c(=O)n2C :: -3.54
O=C1C(=O)N(Cc2cccnc2)C(c2ccccn2)/C1=C(/O)c1ccc(F)cc1 (centres undefined) :: 10.7
CCOC(=O)C1=C(C)NC(=O)NC1c1ccc2c(c1)OCO2 (centres undefined) :: -4.59
CC1(C)CC(=O)C(C=N)=C(O)C1 :: -5.44
CC1(C)CC(=O)C=C(NCCO)C1 :: 20.8

For each of the items listed, what is its activity change, negative = inhibition?
1. CCSC(SCC)[C@H](O)[C@@H](O)[C@H](O)[C@H](O)CO
2. CCSc1nnc(NC(NC(=O)c2ccco2)(C(F)(F)F)C(F)(F)F)s1

1: -0.356; 2: 15.1

For each of the items listed, what is its activity change, negative = inhibition?
1. COCCNc1oc(-c2ccc(C)cc2)nc1C#N
2. CC(C)OC(=O)[C@H]1[C@H](c2ccc(Cl)cc2)[C@@](C#N)(C(N)=O)[C@@H]2C=CC(C(N)=O)=CN21
3. O=C(CC(c1ccc(F)cc1)c1ccco1)N1CCCC1 (centres undefined)
4. Cc1cc(/C(O)=C2\C(=O)C(=O)N(CCN(C)C)C2c2ccncc2)ccc1OCc1ccccc1 (centres undefined)
5. Cc1ccccc1OCC(O)Cn1c(N2CCN(c3ccccc3)CC2)nc2c1c(=O)[nH]c(=O)n2C (centres undefined)
6. C/C(=N\O)C(=O)NCCCNCCCN(C)C

1: -6.25; 2: -13.7; 3: -6.27; 4: -14.5; 5: 14.4; 6: 2.66

For each of the items listed, what is its activity change, negative = inhibition?
1. Cc1cc(/C=N/n2cnnc2)c(C)n1-c1ccc2c(c1)OCO2
2. CNC(=O)C1CC(=O)N(Cc2ccccc2)C(=Nc2ccc(OC)cc2)S1 (centres undefined)

1: 9.26; 2: -3.9

For each of the items listed, what is its activity change, negative = inhibition?
1. COc1ccc2[nH]c(C)c(C(=O)CN3CCc4cc(OC)c(OC)cc4C3)c2c1
2. O=C1NCC(COCC2CC=CCC2)O1 (centres undefined)
3. O=C(Nc1ncn[nH]1)c1c(Cl)ccc(Cl)c1Cl
4. CO[C@H]1C[C@@H]2CC[C@@H](C)[C@@](O)(O2)C(=O)C(=O)N2CCCC[C@H]2C(=O)O[C@H]([C@H](C)C[C@@H]2CC[C@@H](O)[C@H](OC)C2)CC(=O)[C@H](C)C=C(C)[C@@H](O)[C@@H](OC)C(=O)[C@H](C)C[C@H](C)C=CC=CC=C1C
5. NC(=O)C(c1ccccc1)C1CCCC1 (centres undefined)
6. C=CCOC(=O)C1=C(C)NC(SCC(=O)N(CC)CC)=C(C#N)C1c1ccco1 (centres undefined)

[-11.9, 9.6, 13.1, 6.13, -5.55, -27.3]

All figures here come from PubChem BioAssay (NCATS).
